- Tested on: HCT-116 human colon cancer xenografts
- procedure_summary: Tumor growth inhibition of HCT-116 human colon cancer xenografts in nude mice
- Format: in vivo, Balb/c nude mice
- test_context: Day 4; single IP injection (QD×1); D1 and D2 400 mg/kg, D3 350 mg/kg, D4 300 mg/kg
Please go through the items and note down their Tumor growth inhibition rate (TGI %).
Write the number in % without appending the unit.

query: For O=C(CCCC(=O)OC[C@H]1O[C@@H](n2ccc(NC(=O)OCc3ccccc3)nc2=O)C(F)(F)[C@@H]1O)OC[C@H]1O[C@@H](n2ccc(NC(=O)OCc3ccccc3)nc2=O)C(F)(F)[C@@H]1O [Compound D3] , what is its reported Tumor growth inhibition rate (TGI %)?
result: 92.26

query: // repeat for CCCCOC(=O)Nc1ccn(C2OC(COC(=O)CCC(=O)OC[C@H]3O[C@@H](n4ccc(NC(=O)OCc5ccccc5)nc4=O)C(F)(F)[C@@H]3O)C(O)C2(F)F)c(=O)n1 (stereo in doubt) [Compound D4] and report
result: 87.42

query: Param item: CCCCOC(=O)Nc1ccn(C2OC(COC(=O)CCCC(=O)OC[C@H]3O[C@@H](n4ccc(NC(=O)OCCCC)nc4=O)C(F)(F)[C@@H]3OC(=O)OCCCC)C(OC(=O)OCCCC)C2(F)F)c(=O)n1 (stereo in doubt) [Compound D1]
result: 87.46

query: Follow-up item: CCCCOC(=O)Nc1ccn([C@H]2O[C@@H](COC(=O)CCC(=O)OC[C@H]3O[C@@H](n4ccc(NC(=O)OCCCC)nc4=O)C(F)(F)[C@@H]3O)[C@H](O)C2(F)F)c(=O)n1 (stereo in doubt) [Compound D2]
result: 84.53
